- EXPERIMENTAL_PROTOCOL: Time taken to reach maximum drug concentration in plasma of anesthetized rat at 60 mg/kg oral dose
- Type: ADME, organism-based
- Design: dose 60 mg/kg, route oral
MEASURED_ATTRIBUTE: Tmax (h)
Answers are plain numbers, in h.

Provide measured Tmax value, entry: CC(C)C(NC(=O)Cn1c(-c2ccccc2)ccc(NC(=O)NCc2ccncc2)c1=O)C(=O)C(F)(F)F (stereo unspecified)
3

Attribution: ChEMBL document CHEMBL1127354
